# System: Schistosoma mansoni
# assay_summary: High throughput screening of compounds against Schistosoma mansoni motility
# Type: functional
# Parameters: dose or concentration left out as unconfirmed
property: Percent Effect (%)

- molecule: "Cc1ccc(C(=O)N2CCCC2c2nnc3n2CCCCC3)o1 (stereo unspecified)"
  meas_value: -40.92
- molecule: "O=C(c1cccnc1)N1C[C@@H]2CC[C@H](C1)N(Cc1ncc[nH]1)C2"
  meas_value: -27.62
- molecule: "COc1ccc(CNCCc2cc(F)cc3c2OCOC3)cc1O"
  meas_value: -21.14
- molecule: "COc1ccc(-n2nnc(C(=O)NC(C)C)c2C2CC2)cc1"
  meas_value: 0.8394
- molecule: "CNC(=O)c1ccc(OC2CCN(S(C)(=O)=O)CC2)c(Cl)c1"
  meas_value: 40.62
- molecule: "CCSc1cc(C(=O)NCc2ccccc2O)ccn1"
  meas_value: -44.04
- molecule: "Cc1cc(C[C@@H]2COC[C@@H]2NC(=O)CN2CCCC2)on1"
  meas_value: -45.11
- molecule: "Cc1cc(C(=O)N2CCC(c3nccn3Cc3ccncc3)CC2)no1"
  meas_value: -48.3
- molecule: "O=C(c1cnc(COc2ccccc2)nc1O)N1CCOCC1"
  meas_value: 1.503
- molecule: "COc1cccc(OCc2cc(C(=O)NC[C@H]3CCCN3)n[nH]2)c1"
  meas_value: -4.692
- molecule: "COc1cccc(C(=O)NCC(O)c2cccs2)c1 (stereo unspecified)"
  meas_value: -12.61
